Origin of measurements: patent US8466162B2

The following molecules are shown together with reported EC50 values.
# System: MB453 cells
# procedureSummary: alamarBlue MB453 cell assay (antiproliferative/cytotoxicity)
# Format: cell-based
# settings: Homo sapiens; MDA MB 453 breast cancer cell line

structureSmilesString: COc1ncc(C#Cc2c(C)ncnc2-c2ccc(C(=O)N3CCN(C)CC3)c(F)c2)cc1NS(=O)(=O)c1ccc(F)cc1F
unitsSymbol: nM
EC50: 22
//
structureSmilesString: CCc1ncnc(-c2ccc(CNC(=O)OC(C)(C)C)nc2)c1C#Cc1cnc(C)c(NS(=O)(=O)c2ccc(F)cc2F)c1
unitsSymbol: nM
EC50: 89
//
structureSmilesString: CCc1ncnc(-c2ccnc(C)c2)c1C#Cc1cnc(C)c(NS(=O)(=O)c2cccnc2)c1
unitsSymbol: nM
EC50: 164
//
structureSmilesString: CCc1ncnc(-c2ccnc(OC)c2)c1C#Cc1cnc(C)c(NS(C)(=O)=O)c1
unitsSymbol: nM
EC50: 148
//
structureSmilesString: CCc1ncnc(-c2ccnc(C)c2)c1C#Cc1cnc(C)c(NS(=O)(=O)c2ccc(F)cc2F)c1
unitsSymbol: nM
EC50: 69
//
structureSmilesString: CCc1ncnc(-c2ccc(C(=O)N(C)C)cc2F)c1C#Cc1cnc(C)c(NS(C)(=O)=O)c1
unitsSymbol: nM
EC50: 746
//
structureSmilesString: CCc1ncnc(-c2ccc(OC)c(OC)c2)c1C#Cc1cnc(C)c(NS(C)(=O)=O)c1
unitsSymbol: nM
EC50: 79
